target: ABL1 (Homo sapiens, UniProt P00519); construct: commercial enzyme of Promega kinase assay; assay: ADP-Glo kinase assay; assay type: biochemical; conditions: read-out: IC50 value (μM) ± SD / ABL1
Sequence (P00519 whole entry): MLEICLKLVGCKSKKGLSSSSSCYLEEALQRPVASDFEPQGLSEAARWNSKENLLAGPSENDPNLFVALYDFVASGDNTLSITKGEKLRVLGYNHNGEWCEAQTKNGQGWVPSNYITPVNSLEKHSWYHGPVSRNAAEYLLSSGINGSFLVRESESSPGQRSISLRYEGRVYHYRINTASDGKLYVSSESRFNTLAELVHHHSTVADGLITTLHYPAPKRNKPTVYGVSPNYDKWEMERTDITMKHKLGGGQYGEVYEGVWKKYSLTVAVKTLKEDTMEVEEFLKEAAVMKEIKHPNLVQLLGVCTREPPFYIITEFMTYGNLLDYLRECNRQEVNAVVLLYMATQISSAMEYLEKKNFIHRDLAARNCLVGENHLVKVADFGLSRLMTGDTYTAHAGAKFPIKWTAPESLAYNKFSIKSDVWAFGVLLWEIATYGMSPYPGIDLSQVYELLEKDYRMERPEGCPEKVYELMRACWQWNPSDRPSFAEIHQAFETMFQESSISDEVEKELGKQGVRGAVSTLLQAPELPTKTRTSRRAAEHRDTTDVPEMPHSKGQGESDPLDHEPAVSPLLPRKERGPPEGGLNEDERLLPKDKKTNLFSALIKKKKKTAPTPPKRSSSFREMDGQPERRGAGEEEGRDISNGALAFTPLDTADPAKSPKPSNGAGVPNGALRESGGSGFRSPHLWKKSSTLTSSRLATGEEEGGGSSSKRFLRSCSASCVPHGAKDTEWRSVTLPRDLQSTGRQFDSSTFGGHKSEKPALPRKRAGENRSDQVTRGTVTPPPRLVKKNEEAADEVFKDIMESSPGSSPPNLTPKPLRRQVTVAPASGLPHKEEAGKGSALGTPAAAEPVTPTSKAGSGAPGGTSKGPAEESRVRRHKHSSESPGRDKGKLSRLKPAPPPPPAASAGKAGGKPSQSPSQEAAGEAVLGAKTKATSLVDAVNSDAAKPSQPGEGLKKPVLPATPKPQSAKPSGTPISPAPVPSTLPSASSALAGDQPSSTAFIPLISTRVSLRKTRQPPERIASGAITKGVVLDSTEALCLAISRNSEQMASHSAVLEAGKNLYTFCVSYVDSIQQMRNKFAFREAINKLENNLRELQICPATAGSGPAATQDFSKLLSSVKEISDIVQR
Listing: IC50 of selected molecules
Respond numerically; units are µM and should not be typed.

Check out these entries, answers already filled in.
>  <molecule>
COC(=O)Nc1nc2ccc(Sc3ccccc3)cc2[nH]1 [Fenbendazole]

>  <IC50 [µM]>
0.19

$$$$
>  <molecule>
COC(=O)Nc1nc2ccc(C(=O)c3ccccc3)cc2[nH]1 [Mebendazole]

>  <IC50 [µM]>
0.35

$$$$
>  <molecule>
COC(=O)Nc1nc2cc(C(=O)c3ccc(F)cc3)ccc2[nH]1 [Flubendazole]

>  <IC50 [µM]>
0.11

$$$$

Shift focus to the following entry.
In: Quickly give me recorded IC50 for CCCSc1ccc2nc(NC(=O)OC)[nH]c2c1 [Albendazole]
Out: 0.9

###

biological target: MAPK14 (MAPK14/p38α) (Homo sapiens, UniProt Q16539); construct: commercial enzyme of Promega kinase assay; experiment: ADP-Glo kinase assay; assay type: biochemical; details: read-out: IC50 value (μM) ± SD / MAPK14
Sequence (Q16539 2-360): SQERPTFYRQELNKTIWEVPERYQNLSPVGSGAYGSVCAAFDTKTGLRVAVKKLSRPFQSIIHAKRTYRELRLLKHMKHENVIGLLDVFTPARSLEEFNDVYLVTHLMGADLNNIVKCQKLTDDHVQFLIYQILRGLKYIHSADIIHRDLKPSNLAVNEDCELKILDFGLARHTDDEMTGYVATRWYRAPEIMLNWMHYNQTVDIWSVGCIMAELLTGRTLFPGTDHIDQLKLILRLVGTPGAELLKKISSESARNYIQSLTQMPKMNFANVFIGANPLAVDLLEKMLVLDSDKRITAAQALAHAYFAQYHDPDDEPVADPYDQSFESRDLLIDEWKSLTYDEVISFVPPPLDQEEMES
IC50 listing for selected compounds.
Please respond with the number in µM and leave the unit unwritten.

>  <compound smiles>
COC(=O)Nc1nc2cc(C(=O)c3ccc(F)cc3)ccc2[nH]1

>  <IC50 (µM)>
5.5

$$$$

In: Name the recorded IC50 of the compound listed here: COC(=O)Nc1nc2ccc(C(=O)c3cccs3)cc2[nH]1
Out: 2.8

In: Report IC50 for COC(=O)Nc1nc2ccc(Sc3ccccc3)cc2[nH]1
Out: 10.7

###

Measured IC50, listed per entry for reference.
target: ERK2 (MAPK1) (Homo sapiens, UniProt P28482); construct: commercial enzyme of Promega kinase assay; experiment: ADP-Glo kinase assay; assay type: biochemical; conditions: read-out: IC50 value (μM) ± SD / ERK2
Sequence (P28482 2-360): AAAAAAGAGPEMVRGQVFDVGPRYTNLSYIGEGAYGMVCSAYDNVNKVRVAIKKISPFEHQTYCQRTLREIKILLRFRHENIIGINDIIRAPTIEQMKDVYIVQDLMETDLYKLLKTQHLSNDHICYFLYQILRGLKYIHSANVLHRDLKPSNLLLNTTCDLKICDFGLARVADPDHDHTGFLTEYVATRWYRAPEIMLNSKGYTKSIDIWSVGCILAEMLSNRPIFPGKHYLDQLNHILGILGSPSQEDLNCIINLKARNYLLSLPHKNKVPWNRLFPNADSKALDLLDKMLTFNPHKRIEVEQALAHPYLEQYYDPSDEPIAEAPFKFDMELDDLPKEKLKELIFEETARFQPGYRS

>  <compound smiles>
COC(=O)Nc1nc2ccc(C(=O)c3cccs3)cc2[nH]1

>  <IC50>
26.9 µM

$$$$
>  <compound smiles>
COC(=O)Nc1nc2ccc(Sc3ccccc3)cc2[nH]1

>  <IC50>
> 50 µM

$$$$
>  <compound smiles>
COC(=O)Nc1nc2cc(C(=O)c3ccc(F)cc3)ccc2[nH]1

>  <IC50>
15.9 µM

$$$$
>  <compound smiles>
COC(=O)Nc1nc2ccc(C(=O)c3ccccc3)cc2[nH]1

>  <IC50>
24.7 µM

$$$$

Now, please, on to the next compound.
In: # lookup: ERK2 (MAPK1) (Homo sapiens, UniProt P28482) IC50, key = CCCSc1ccc2nc(NC(=O)OC)[nH]c2c1
Out: 3.4 µM

###

target: ABL1 (Homo sapiens, UniProt P00519); construct: commercial enzyme of Promega kinase assay; assay: ADP-Glo kinase assay; type: biochemical; settings: read-out: IC50
outcome measure: IC50 (nM)
Report as a plain number; the unit nM is understood.

In: Quick one: give measured IC50 for COC(=O)Nc1nc2ccc(C(=O)c3cccs3)cc2[nH]1 [Nocodazole]
Out: 78
